system: SW480 cells; experiment: MTT cytotoxicity assay, SW480; type: cell-based, human; settings: Homo sapiens, SW480, 72 h, read-out: IC50 SW480
# note: boundary value 6 µM maps to class 0; IC50 below it maps to class 1

Illustrative cases are given below, each with its answer.
COMPOUND	CLASS
COc1cc(-c2nc3ccc(C(=O)Nc4ccc(C)cc4)cc3[nH]2)cc(OC)c1OC [Compound 5m]	class 0
COc1cc(-c2nc3ccc(C(=O)Nc4ccc(C)cc4C)cc3[nH]2)cc(OC)c1OC [Compound 5n]	class 0
COc1cccc2c1C(=O)c1c(O)c3c(c(O)c1C2=O)C[C@@](O)(C(=O)CO)C[C@@H]3O[C@H]1C[C@H](N)[C@H](O)[C@H](C)O1 [Doxorubicin, reference compound]	class 1
COc1cc(-c2nc3ccc(C(=O)Nc4ccc(Br)cc4)cc3[nH]2)cc(OC)c1OC [Compound 5j]	class 0
COc1cc(-c2nc3ccc(C(=O)Nc4ccccc4)cc3[nH]2)cc(OC)c1OC [Compound 5e]	class 1

Field: next compound
Task: Could you please tell me whether IC50 recorded for COc1cc(-c2nc3ccc(C(=O)Nc4ccccc4F)cc3[nH]2)cc(OC)c1OC [Compound 5f] is less than 6 µM?
Result: class 0

---

system: A549 cells; experiment: MTT cytotoxicity assay, A549; assay type: cell-based, human; conditions: selectivity index = IC50 in MRC-5 / IC50 in A549
Returns T if the recorded SI A549 is greater than or equal to 30, and F otherwise.

Task: Given the entry COc1cccc2c1C(=O)c1c(O)c3c(c(O)c1C2=O)C[C@@](O)(C(=O)CO)C[C@@H]3O[C@H]1C[C@H](N)[C@H](O)[C@H](C)O1 [Doxorubicin, reference compound] , answer whether its SI A549 meets or surpasses 30.
Result: F

Task: Given the entry COc1ccc(NC(=O)c2ccc3nc(-c4cc(OC)c(OC)c(OC)c4)[nH]c3c2)c(OC)c1 , answer whether its SI A549 meets or surpasses 30.
Result: T

Task: Given the entry COc1cc(-c2nc3ccc(C(=O)Nc4ccccc4)cc3[nH]2)cc(OC)c1OC , answer whether its SI A549 meets or surpasses 30.
Result: T

Task: Given the entry COc1cc(-c2nc3ccc(C(=O)Nc4ccc(C)cc4)cc3[nH]2)cc(OC)c1OC , answer whether its SI A549 meets or surpasses 30.
Result: F

Task: Given the entry COc1cc(-c2nc3ccc(C(=O)Nc4ccccc4F)cc3[nH]2)cc(OC)c1OC , answer whether its SI A549 meets or surpasses 30.
Result: F
